# Tgt: Bcl-2-like protein 1 (Homo sapiens)
# Sequence (Q07817 whole entry): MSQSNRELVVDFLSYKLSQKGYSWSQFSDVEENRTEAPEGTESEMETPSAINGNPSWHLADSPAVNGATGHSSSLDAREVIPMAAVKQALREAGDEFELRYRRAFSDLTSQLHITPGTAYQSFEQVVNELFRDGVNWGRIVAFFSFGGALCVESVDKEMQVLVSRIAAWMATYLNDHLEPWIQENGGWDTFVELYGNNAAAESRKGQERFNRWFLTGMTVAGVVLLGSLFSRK
# Method: Inhibition of Bcl-xl in human U266B1 cells assessed as caspase 3/7 activation for 6 hrs by Caspase 3/7-Glo luminescence assay
# Format: cell-based
Measured EC50 of individual entries
Measure Name: EC50 (µM)

1) C#CCN(C)CC[C@H](CSc1ccccc1)Nc1ccc(S(=O)(=O)NC(=O)c2ccc(-c3ccc(F)cc3)c(S(=O)(=O)F)c2)cc1S(=O)(=O)C(F)(F)F | 0.59
2) O=C(NS(=O)(=O)c1ccc(N[C@H](CCN2CCOCC2)CSc2ccccc2)c([N+](=O)[O-])c1)c1ccc(-c2ccc(F)cc2S(=O)(=O)F)cc1 | 5.63

====

# Tgt: UniProt:P10415
# Sequence (P10415 whole entry, the tested form may be a part): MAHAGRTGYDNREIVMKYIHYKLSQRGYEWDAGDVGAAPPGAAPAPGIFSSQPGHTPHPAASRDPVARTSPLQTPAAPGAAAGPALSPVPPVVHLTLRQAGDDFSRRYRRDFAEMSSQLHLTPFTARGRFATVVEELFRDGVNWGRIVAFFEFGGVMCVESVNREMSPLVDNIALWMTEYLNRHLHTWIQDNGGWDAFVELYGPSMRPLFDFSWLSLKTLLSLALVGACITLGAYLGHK
# Method: Inhibition of recombinant human C-terminal 6xHis-tagged Bcl-2 (M1 to F212 residues) expressed in Escherichia coli using HyLite Fluor 647-labeled BIM peptide as substrate incubated for 120 to 180 mins by TR-FRET assay
Measure Name: IC50 (µM)

1. O=C(NS(=O)(=O)c1ccc(N[C@H](CCN2CCOCC2)CSc2ccccc2)c([N+](=O)[O-])c1)c1ccc(-c2ccc(F)cc2)c(S(=O)(=O)F)c1 | 2
2. O=C(NS(=O)(=O)c1ccc(N[C@H](CCN2CCOCC2)CSc2ccccc2)c([N+](=O)[O-])c1)c1ccc(-c2ccc(F)cc2S(=O)(=O)F)cc1 | 27.6
3. O=C(NS(=O)(=O)c1ccc(N[C@H](CCN2CCOCC2)CSc2ccccc2)c([N+](=O)[O-])c1)c1ccc(-c2ccc(F)cc2)cc1 | 6.3
4. O=C(NS(=O)(=O)c1ccc(N[C@H](CCN2CCOCC2)CSc2ccccc2)c([N+](=O)[O-])c1)c1ccc(-c2ccc(F)cc2)c(S(=O)(=O)O)c1 | 55.9
5. C#CCN(C)CC[C@H](CSc1ccccc1)Nc1ccc(S(=O)(=O)NC(=O)c2ccc(-c3ccc(F)cc3)c(S(=O)(=O)F)c2)cc1S(=O)(=O)C(F)(F)F | 1.3
6. O=C(NS(=O)(=O)c1ccc(N[C@H](CCN2CCOCC2)CSc2ccccc2)c([N+](=O)[O-])c1)c1ccc(-c2ccc(F)c(S(=O)(=O)F)c2)cc1 | 9.7
